These data points were gathered from ChEMBL document CHEMBL1150419.

Target: IgG receptor FcRn large subunit p51 (Homo sapiens)
Assay: Inhibition of human IgG binding to soluble human FcRn by ELISA
pIC50: −log10 of the molar value.
attribute measured: pIC50

CC(C)C[C@@H](C(=O)N[C@@H](Cc1ccc(O)cc1)C(=O)N1CCC[C@H]1C(=O)N[C@@H](CS)C(=O)O)N(C)C(=O)CN(C)C(=O)CNC(=O)[C@H](Cc1ccccc1)NC(=O)[C@H](CCCNC(=N)N)NC(=O)CNC(=O)[C@@H](NC(=O)[C@@H](NC(=O)[C@H](Cc1ccccc1)NC(=O)[C@@H](N)CCCNC(=N)N)C(C)(C)S)[C@@H](C)O :: 5.26
CC(C)C[C@H](NC(=O)CNC(=O)CNC(=O)[C@H](Cc1ccccc1)NC(=O)[C@H](Cc1cnc[nH]1)NC(=O)CNC(=O)[C@@H](NC(=O)[C@@H](NC(=O)[C@H](Cc1ccccc1)NC(=O)[C@H](CCCN=C(N)N)NC(=O)[C@@H](N)CCC(N)=O)C(C)(C)S)[C@@H](C)O)C(=O)N[C@@H](Cc1ccc(N)cc1)C(=O)N1CCC[C@H]1C(=O)N[C@@H](CS)C(=O)N[C@@H](CC(N)=O)C(=O)NCC(=O)N1CCC[C@H]1C(=O)O :: 3.96
CC(C)C[C@H](NC(=O)[C@@H](C)NC(=O)CNC(=O)[C@H](Cc1ccccc1)NC(=O)[C@H](Cc1cnc[nH]1)NC(=O)CNC(=O)[C@@H](NC(=O)[C@@H](NC(=O)[C@H](Cc1ccccc1)NC(=O)[C@H](CCCN=C(N)N)NC(=O)[C@@H](N)CCC(N)=O)C(C)(C)S)[C@@H](C)O)C(=O)N[C@@H](Cc1ccc(O)cc1)C(=O)N1CCC[C@H]1C(=O)N[C@@H](CS)C(=O)N[C@@H](CC(N)=O)C(=O)NCC(=O)N1CCC[C@H]1C(=O)O :: 5.70
CC[C@H](C)[C@@H](NC(=O)CNC(=O)[C@H](Cc1ccccc1)NC(=O)[C@H](Cc1cnc[nH]1)NC(=O)CNC(=O)[C@@H](NC(=O)[C@@H](NC(=O)[C@H](Cc1ccccc1)NC(=O)[C@H](CCCNC(=N)N)NC(=O)[C@@H](N)CCC(N)=O)C(C)(C)S)[C@@H](C)O)C(=O)N[C@@H](CC(C)C)C(=O)N[C@@H](Cc1ccc(O)cc1)C(=O)N1CCC[C@H]1C(=O)N[C@@H](CS)C(=O)N[C@@H](CC(N)=O)C(=O)NCC(=O)N1CCC[C@H]1C(=O)O :: 4.74

* * *

Biological target: IgG receptor FcRn large subunit p51 (Homo sapiens, UniProt P55899)
Sequence (P55899 whole entry): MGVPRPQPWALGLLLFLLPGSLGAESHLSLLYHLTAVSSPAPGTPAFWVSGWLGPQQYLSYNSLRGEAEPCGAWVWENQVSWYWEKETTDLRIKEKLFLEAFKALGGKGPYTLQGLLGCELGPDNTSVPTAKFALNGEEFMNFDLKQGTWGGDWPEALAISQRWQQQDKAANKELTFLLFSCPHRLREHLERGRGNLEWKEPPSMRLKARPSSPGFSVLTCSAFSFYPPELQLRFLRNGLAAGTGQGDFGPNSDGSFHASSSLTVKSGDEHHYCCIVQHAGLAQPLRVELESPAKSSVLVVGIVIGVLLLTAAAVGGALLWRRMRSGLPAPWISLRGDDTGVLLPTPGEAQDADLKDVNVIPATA
Test: Binding affinity to human FcRn at pH 6 by surface plasmon resonance assay
pKd: −log10 of the molar value. Peptide text beside a SMILES is read from it.
Here, each record is paired with measured pKd data.
attribute measured: pKd

CC(C)C[C@H](NC(=O)CNC(=O)CNC(=O)[C@H](Cc1ccccc1)NC(=O)[C@H](Cc1cnc[nH]1)NC(=O)CNC(=O)[C@@H](NC(=O)[C@@H](N)CS)[C@@H](C)O)C(=O)N[C@@H](Cc1ccc(O)cc1)C(=O)N1CCC[C@H]1C(=O)N[C@@H](CS)C(=O)N[C@@H](CC(N)=O)C(=O)NCC(=O)N1CCC[C@H]1C(=O)O (H-CTGHFGGLYPCNGP-OH) :: 4.47
CC(C)C[C@H](NC(=O)CNC(=O)[C@H](C)NC(=O)[C@H](Cc1ccccc1)NC(=O)[C@H](Cc1cnc[nH]1)NC(=O)CNC(=O)[C@@H](NC(=O)[C@H](CS)NC(=O)[C@H](Cc1ccccc1)NC(=O)[C@H](CCCNC(=N)N)NC(=O)[C@@H](N)CCC(N)=O)[C@@H](C)O)C(=O)N[C@@H](Cc1ccc(O)cc1)C(=O)N1CCC[C@H]1C(=O)N[C@@H](CS)C(=O)N[C@@H](CC(N)=O)C(=O)NCC(=O)N1CCC[C@H]1C(=O)O :: 3.64

* * *

Molecular target: IgG receptor FcRn large subunit p51 (Homo sapiens, UniProt P55899)
Assay: Binding affinity to human FcRn at pH 6 by surface plasmon resonance assay
Listing of recorded Kd by entry.
attribute measured: Kd (nM)

CC(C)C[C@@H](C(=O)N[C@@H](Cc1ccc(O)cc1)C(=O)N1CCC[C@H]1C(=O)N[C@@H](CS)C(=O)N[C@@H](CC(N)=O)C(=O)NCC(=O)N1CCC[C@H]1C(=O)O)N(C)C(=O)CNC(=O)[C@@H](Cc1ccccc1)NC(=O)[C@H](Cc1ccccc1)NC(=O)[C@H](Cc1cnc[nH]1)NC(=O)CNC(=O)[C@@H](NC(=O)[C@@H](NC(=O)[C@H](Cc1ccccc1)NC(=O)[C@H](CCCNC(=N)N)NC(=O)[C@@H](N)CCC(N)=O)C(C)(C)S)[C@@H](C)O :: 240
CC(C)C[C@@H](C(=O)N[C@@H](Cc1ccc(O)cc1)C(=O)N1CCC[C@H]1C(=O)N[C@@H](CS)C(=O)O)N(C)C(=O)CN1CCCC[C@@H](NC(=O)[C@H](Cc2ccccc2)NC(=O)[C@H](Cc2cnc[nH]2)NC(=O)CNC(=O)[C@@H](NC(=O)[C@H](NC(=O)[C@H](Cc2ccccc2)NC(=O)[C@@H](N)CCCNC(=N)N)C(C)(C)S)[C@@H](C)O)C1=O :: 44
CC(C)C[C@H](NC(=O)CNC(=O)CNC(=O)[C@H](Cc1ccc(N)cc1)NC(=O)[C@H](Cc1cnc[nH]1)NC(=O)CNC(=O)[C@@H](NC(=O)[C@@H](NC(=O)[C@H](Cc1ccccc1)NC(=O)[C@H](CCCN=C(N)N)NC(=O)[C@@H](N)CCC(N)=O)C(C)(C)S)[C@@H](C)O)C(=O)N[C@@H](Cc1ccc(O)cc1)C(=O)N1CCC[C@H]1C(=O)N[C@@H](CS)C(=O)N[C@@H](CC(N)=O)C(=O)NCC(=O)N1CCC[C@H]1C(=O)O :: 1000

* * *

Molecular target: IgG receptor FcRn large subunit p51 (Homo sapiens)
Experiment: Binding affinity to human FcRn at pH 6 by surface plasmon resonance assay
pKd: −log10 of the molar value. Bridge positions count the residues as written; N and C are the ends. Peptide text beside a SMILES is read from it.
attribute measured: pKd

CC[C@H](C)[C@H](NC(=O)[C@@H](NC(=O)[C@@H](N)CCCCN)[C@@H](C)CC)C(=O)N[C@H]1CSSC[C@@H](C(=O)N[C@@H](CCC(N)=O)C(=O)NCC(=O)N[C@@H](CCCCN)C(=O)O)NC(=O)[C@H](Cc2ccc(O)cc2)NC(=O)[C@H](CCSC)NC(=O)CNC(=O)CNC(=O)[C@H](Cc2ccccc2)NC(=O)[C@H](Cc2cnc[nH]2)NC(=O)CNC(=O)[C@@H]2CCCN2C(=O)[C@H](CO)NC1=O (H-KIICSPGHFGGMYCQGK-OH; disulfide 4-14) :: 4.66
CC(C)C[C@H](NC(=O)CNC(=O)[C@@H](CC(=O)O)NC(=O)[C@H](Cc1ccccc1)NC(=O)[C@H](Cc1cnc[nH]1)NC(=O)CNC(=O)[C@@H](NC(=O)[C@@H](NC(=O)[C@H](Cc1ccccc1)NC(=O)[C@H](CCCN=C(N)N)NC(=O)[C@@H](N)CCC(N)=O)C(C)(C)S)[C@@H](C)O)C(=O)N[C@@H](Cc1ccc(O)cc1)C(=O)N1CCC[C@H]1C(=O)N[C@@H](CS)C(=O)N[C@@H](CC(N)=O)C(=O)NCC(=O)N1CCC[C@H]1C(=O)O :: 6.24
CC(C)C[C@H](NC(=O)CNC(=O)CNC(=O)[C@H](Cc1ccccc1)NC(=O)[C@H](Cc1cnc[nH]1)NC(=O)CNC(=O)[C@@H](NC(=O)[C@H](CS)NC(=O)[C@H](C)NC(=O)[C@H](CCCN=C(N)N)NC(=O)[C@@H](N)CCC(N)=O)[C@@H](C)O)C(=O)N[C@@H](Cc1ccc(O)cc1)C(=O)N1CCC[C@H]1C(=O)N[C@@H](CS)C(=O)N[C@@H](CC(N)=O)C(=O)NCC(=O)N1CCC[C@H]1C(=O)O (H-QRACTGHFGGLYPCNGP-OH) :: 4.55

* * *

Biological target: IgG receptor FcRn large subunit p51 (Homo sapiens)
Assay: Binding affinity to human FcRn at pH 6 by surface plasmon resonance assay
pKd: −log10 of the molar value.
This listing pairs molecules with measured pKd.
attribute measured: pKd

CC(C)C[C@H](NC(=O)CN1CCCC[C@@H](NC(=O)[C@H](Cc2ccccc2)NC(=O)[C@H](Cc2cnc[nH]2)NC(=O)CNC(=O)[C@@H](NC(=O)[C@@H](NC(=O)[C@H](Cc2ccccc2)NC(=O)[C@@H](N)CCCN=C(N)N)C(C)C)[C@@H](C)O)C1=O)C(=O)N[C@@H](Cc1ccc(O)cc1)C(=O)N1CCC[C@H]1C(=O)N[C@@H](C)C(=O)O :: 5.64
CC(C)C[C@H](NC(=O)CNC(=O)CNC(=O)[C@H](Cc1ccccc1)NC(=O)[C@H](Cc1cnc[nH]1)NC(=O)CNC(=O)[C@@H](NC(=O)[C@H](CCC(=O)O)NC(=O)[C@H](Cc1ccccc1)NC(=O)[C@H](CCCNC(=N)N)NC(=O)[C@@H](N)CCC(N)=O)[C@@H](C)O)C(=O)N[C@@H](Cc1ccc(O)cc1)C(=O)N1CCC[C@H]1C(=O)N[C@@H](CN)C(=O)N[C@@H](CC(N)=O)C(=O)NCC(=O)N1CCC[C@H]1C(=O)O :: 5.02
